Test: Mouse pharmacokinetics assay (IV and PO)
Assay type: in vivo, CD-1 mice
Settings: female, CD-1, mouse, in vivo; mice; PO 5 mg/kg; IV 1 mg/kg; read-out: F, bioavailability
property.measured: bioavailability (%)
API: value field is a number in %; no unit string.

Ask: What measured bioavailability goes with CCCNC(=O)N1[C@H](C#N)[C@H](c2ccc(-c3ccc(C(F)(F)F)c(C(F)(F)F)c3)cc2)[C@H]1CO ?
Reply: 94

###

Test: Mouse pharmacokinetics assay (IV and PO)
Type: in vivo, CD-1 mice
Settings: mice; PO 5 mg/kg; read-out: Cmax, peak serum concentration
property.measured: Cmax (µM)
API: value field is a number in µM; no unit string.

Ask: What measured Cmax goes with CCCNC(=O)N1[C@H](C#N)[C@H](c2ccc(-c3ccc(C(F)(F)F)c(C(F)(F)F)c3)cc2)[C@H]1CO ?
Reply: 16.9
